These measurements were taken from patent US20260193264A1.

As shown below, each of these molecules has a reported Dmax value.
- target.system: HiBit-BRG1 fusion protein in stable HeLa cell line expressing HiBit-BRG1 and LgBit (Homo sapiens)
- Construct: expressed in transfected cells
- Sequence (P51532 whole entry, the tested form may be a part): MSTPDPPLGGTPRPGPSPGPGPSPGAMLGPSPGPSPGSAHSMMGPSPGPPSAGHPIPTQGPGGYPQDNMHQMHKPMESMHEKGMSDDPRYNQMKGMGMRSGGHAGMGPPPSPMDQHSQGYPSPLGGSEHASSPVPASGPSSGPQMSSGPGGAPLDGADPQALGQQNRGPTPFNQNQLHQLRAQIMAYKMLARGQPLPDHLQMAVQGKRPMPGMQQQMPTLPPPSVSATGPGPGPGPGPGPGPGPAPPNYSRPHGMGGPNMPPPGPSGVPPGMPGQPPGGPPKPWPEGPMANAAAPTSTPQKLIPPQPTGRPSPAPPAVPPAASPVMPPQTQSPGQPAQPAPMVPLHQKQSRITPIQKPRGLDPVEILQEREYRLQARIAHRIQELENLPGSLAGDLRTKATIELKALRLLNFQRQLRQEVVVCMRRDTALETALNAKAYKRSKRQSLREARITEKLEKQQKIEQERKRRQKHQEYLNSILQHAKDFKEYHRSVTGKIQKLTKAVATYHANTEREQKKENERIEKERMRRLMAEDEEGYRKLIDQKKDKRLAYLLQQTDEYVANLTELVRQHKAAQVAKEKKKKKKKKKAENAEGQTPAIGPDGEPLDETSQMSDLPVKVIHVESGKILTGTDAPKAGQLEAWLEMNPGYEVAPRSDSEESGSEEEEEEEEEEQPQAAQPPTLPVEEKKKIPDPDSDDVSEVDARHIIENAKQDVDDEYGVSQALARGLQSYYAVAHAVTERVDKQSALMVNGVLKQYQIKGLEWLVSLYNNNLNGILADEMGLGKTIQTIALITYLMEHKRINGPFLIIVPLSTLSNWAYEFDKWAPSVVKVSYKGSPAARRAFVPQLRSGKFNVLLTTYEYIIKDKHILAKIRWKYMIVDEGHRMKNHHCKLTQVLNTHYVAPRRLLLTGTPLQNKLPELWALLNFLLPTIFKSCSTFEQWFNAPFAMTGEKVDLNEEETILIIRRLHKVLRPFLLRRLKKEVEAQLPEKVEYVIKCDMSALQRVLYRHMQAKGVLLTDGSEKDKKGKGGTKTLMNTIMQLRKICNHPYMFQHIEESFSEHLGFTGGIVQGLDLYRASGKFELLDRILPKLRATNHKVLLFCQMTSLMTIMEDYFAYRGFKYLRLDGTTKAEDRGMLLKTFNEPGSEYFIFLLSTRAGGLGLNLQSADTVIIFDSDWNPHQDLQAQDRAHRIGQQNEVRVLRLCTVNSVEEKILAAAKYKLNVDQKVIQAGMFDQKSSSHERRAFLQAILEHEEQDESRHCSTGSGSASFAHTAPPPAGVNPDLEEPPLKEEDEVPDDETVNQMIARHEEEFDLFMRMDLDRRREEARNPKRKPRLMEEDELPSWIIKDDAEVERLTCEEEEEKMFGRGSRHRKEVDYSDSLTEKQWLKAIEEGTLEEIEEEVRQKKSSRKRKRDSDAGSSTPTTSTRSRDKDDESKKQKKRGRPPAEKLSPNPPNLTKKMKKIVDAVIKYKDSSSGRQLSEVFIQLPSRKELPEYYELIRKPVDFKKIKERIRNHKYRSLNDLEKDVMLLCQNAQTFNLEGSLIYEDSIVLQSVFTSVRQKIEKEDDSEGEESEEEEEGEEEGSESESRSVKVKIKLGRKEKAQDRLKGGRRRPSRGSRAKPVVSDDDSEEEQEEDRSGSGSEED
- experiment.notes: HiBiT-BRG1 cell-based degradation assay (Nano-Glo HiBiT, 24 h)
- experimental.setup: HeLa HiBit-BRG1/LgBit cells, top dose 30 μM, read-out: BRG1 HiBit Degradation Maximum (%)

molecule	Dmax
Cc1ncsc1-c1ccc([C@H](C)NC(=O)[C@@H]2C[C@@H](O)CN2C(=O)[C@@H](c2cc(N3CC4(CN(c5cc(C)c6cc(-c7ccccc7O)nnc6c5)C4)C3)no2)C(C)C)cc1	< 50%
Cc1ncsc1-c1ccc([C@H](C)NC(=O)[C@@H]2C[C@@H](O)CN2C(=O)[C@@H](c2cc(-c3cnc(N4CCC5(CC4)CC(c4ccc6nnc(-c7ccccc7O)cc6c4)C5)nc3)no2)C(C)C)cc1	> 75%
Cc1ncsc1-c1ccc([C@H](C)NC(=O)[C@@H]2C[C@@H](O)CN2C(=O)[C@@H](c2cc(N3CCN([C@H]4CCN(c5ccc6nnc(-c7ccccc7O)cc6c5)CC4(F)F)CC3)no2)C(C)C)cc1	> 75%
COc1cc2cc(-c3ccccc3O)nnc2cc1CN1CC[C@@H](N2CCN(c3cc([C@H](C(=O)N4C[C@H](O)C[C@H]4C(=O)N[C@@H](C)c4ccc(-c5scnc5C)cc4)C(C)C)on3)CC2)C(F)(F)C1	> 75%
CNC(=O)[C@@H]1C[C@@H](O)CN1C(=O)[C@@H](c1cc(N2CC3(C2)CN(c2cc4nnc(-c5ccccc5O)cc4cc2OC)C3)no1)C(C)C	< 50%
CC(C)[C@@H](C(=O)N1C[C@H](O)C[C@H]1C(=O)N[C@@H](C)c1ccc(F)cc1)c1cc(N2CC3(CN(c4ccc5cc(-c6ccccc6O)nnc5c4)C3)C2)no1	< 50%
Cc1ncsc1-c1ccc([C@H](C)NC(=O)[C@@H]2C[C@@H](O)CN2C(=O)[C@@H](c2cc(N3CC4(C3)CN(c3cc5nnc(-c6ccccc6O)cc5cc3C#N)C4)no2)C(C)C)cc1	< 50%
Cc1ncsc1-c1ccc([C@H](C)NC(=O)[C@@H]2C[C@@H](O)CN2C(=O)[C@H](c2cc(-c3cnc(N4CC5(CC(c6ccc7cc(-c8ccccc8O)nnc7c6)C5)C4)nc3)no2)C(C)C)cc1	< 50%
Cc1ncsc1-c1ccc([C@H](C)NC(=O)[C@@H]2C[C@@H](O)CN2C(=O)C(C(C)C)n2cc(N3C4CCC3CN(c3ccc5nnc(-c6ccccc6O)cc5c3)C4)nn2)cc1 (stereo partly shown)	> 75%
Cc1ncsc1-c1ccc([C@H](C)NC(=O)[C@@H]2C[C@@H](O)CN2C(=O)C(C(C)C)n2cc(N3CCC(CN4CCN(c5ccc6cc(-c7ccccc7O)nnc6c5)CC4)CC3)nn2)cc1 (stereo partly shown)	> 75%
C#Cc1ccc([C@H](C)NC(=O)[C@@H]2C[C@@H](O)CN2C(=O)[C@H](C(C)C)n2cc(N3CC4(CN(c5ccc6cc(-c7ccccc7O)nnc6c5)C4)C3)nn2)cc1	< 50%
CC(C)[C@@H](C(=O)N1C[C@H](O)C[C@H]1C(=O)N[C@@H](C)c1ccccc1)c1cc(N2CC[C@@H](c3ccc4cc(-c5ccccc5O)nnc4c3)C2)no1	< 50%
C#Cc1ccc(CNC(=O)[C@@H]2C[C@@H](O)CN2C(=O)[C@H](C(C)C)n2cc(N3CC4(CN(c5ccc6cc(-c7ccccc7O)nnc6c5)C4)C3)nn2)cc1	< 50%
Cc1ncsc1-c1ccc([C@H](C)NC(=O)[C@@H]2C[C@@H](O)CN2C(=O)[C@@H](c2cc(N3CCC4(CC[C@@H](c5ccc6cc(-c7ccccc7O)nnc6c5)C4)CC3)no2)C(C)C)cc1	< 50%
Cc1ncsc1-c1ccc([C@H](C)NC(=O)[C@@H]2C[C@@H](O)CN2C(=O)[C@@H](c2cc(OCCN3CC(c4ccc5nnc(-c6ccccc6O)cc5c4)C3)no2)C(C)C)cc1	< 50%
Cc1ncsc1-c1ccc([C@H](C)NC(=O)[C@@H]2C[C@@H](O)CN2C(=O)[C@@H](c2cc(-c3cnc(N4CC5(CN(c6ccc7cc(-c8ccccc8O)nnc7c6)C5)C4)nc3)no2)C(C)C)cc1	> 75%
Cc1ncsc1-c1ccc([C@H](C)NC(=O)[C@@H]2C[C@@H](O)CN2C(=O)[C@@H](c2cc(N3C[C@@H]4[C@H](C3)[C@H]4c3ccc4nnc(-c5ccccc5O)cc4c3)no2)C(C)C)cc1	< 50%
Cc1ncsc1-c1ccc([C@H](C)NC(=O)[C@@H]2C[C@@H](O)CN2C(=O)[C@@H](c2cc(N3CC4(CCC(c5ccc6cc(-c7ccccc7O)nnc6c5)CC4)C3)no2)C(C)C)cc1	> 75%
Cc1ncsc1-c1ccc([C@H](C)NC(=O)[C@@H]2C[C@@H](O)CN2C(=O)C(C(C)C)n2cc(N3CCCC(CN4CCN(c5ccc6cc(-c7ccccc7O)nnc6c5)CC4)C3)nn2)cc1 (stereo partly shown)	> 75%
